Task for the reader: assign each of the following compounds its reported melting point.

• O=C(O)CCC(=O)O.O=C(OCCc1cccc(Cl)c1)N1CCOc2cc3c(cc21)CCNCC3 = 160 to 162 °C

For every record below, what is its melting point?
1. O=C(O)CCC(=O)O.O=C(OCCc1ccccc1)N1CCOc2cc3c(cc21)CCNCC3
2. COCC(F)(F)CN1CCOc2cc3c(cc21)CCNCC3.Cl
3. O=C(O)CCC(=O)O.O=C(OCCc1ccccc1F)N1CCOc2cc3c(cc21)CCNCC3
4. c1c2c(c(C3CC3)c3c1OCCN3C[C@@H]1CCCO1)CCNCC2
5. CC(C)CN1C(=O)CCc2cc3c(cc21)CCNCC3.O=C(O)CCC(=O)O

Reply:
1: 185 to 187 °C; 2: 172 to 173 °C; 3: 186 to 187 °C; 4: 154 to 156 °C; 5: 142 to 144 °C

For every record below, what is its melting point?
1. CC1(C)CCNc2cc3c(cc21)CCNCC3
2. C[C@H](F)CN1CCOc2cc3c(c(C4CC4)c21)CCNCC3.O=C(O)/C=C/C(=O)O
3. COCCN1C(=O)CCc2cc3c(c(Br)c21)CCNCC3.O=C(O)/C=C/C(=O)O
4. COCCCN1CCOc2cc3c(c(C4CC4)c21)CCNCC3.O=C(O)/C=C/C(=O)O

Reply:
1: 288 to 290 °C; 2: 171 to 173 °C; 3: 99 to 104 °C; 4: 169 to 171 °C

For every record below, what is its melting point?
1. FC1(F)Oc2ccc(CN3CCOc4cc5c(c(C6CC6)c43)CCNCC5)cc2O1.O=C(O)/C=C/C(=O)O
2. CN1CCOc2cc3c(c(-c4cccs4)c21)CCNCC3.O=C(O)/C=C/C(=O)O
3. CCO[C@H](C)CN1CCOc2cc3c(c(C4CC4)c21)CCNCC3.O=C(O)/C=C/C(=O)O
4. COC[C@H](CN1CCOc2cc3c(c(C4CC4)c21)CCNCC3)OC.O=C(O)/C=C/C(=O)O
5. CC(C)CN1CCCc2cc3c(c(Cl)c21)CCNCC3.O=C(O)/C=C/C(=O)O
6. COCC(C)CN1CCOc2cc3c(cc21)CCNCC3 (stereo not drawn)
7. COCC1(CN2CCOc3cc4c(c(C5CC5)c32)CCNCC4)CC1

Reply:
161 to 164 °C
248 to 252 °C
157 to 160 °C
150 to 154 °C
159 to 163 °C
129 to 132 °C
166 to 167 °C

For every record below, what is its melting point?
1. O=C(O)C(=O)O.O=C(OCCc1ccccc1)N1CCCc2cc3c(c(Br)c21)CCNCC3
2. CCc1c2c(cc3c1N(CCCF)CCO3)CCNCC2
3. COCCCN1CCOc2cc3c(c(C)c21)CCNCC3.O=C(O)/C=C/C(=O)O

Reply:
1. 176 to 177 °C
2. 153 to 154 °C
3. 160 to 163 °C

For every record below, what is its melting point?
1. Clc1c2c(cc3c1N(CC1CCCC1)CCC3)CCNCC2
2. Cl.O=C1CCc2cc3c(cc2N1Cc1ccccc1)CCNCC3

Reply:
["151 to 153 °C", "177 to 180 °C"]

For every record below, what is its melting point?
1. Cl.FC(F)(F)CN1CCOc2cc3c(cc21)CCNCC3
2. CO[C@H](C)CN1CCOc2cc3c(c(C4CC4)c21)CCNCC3.O=C(O)/C=C/C(=O)O
3. COCCN1CCOc2cc3c(c(C)c21)CCNCC3.O=C(O)/C=C/C(=O)O
4. O=C(O)CCC(=O)O.O=C(OCCc1ccccc1)N1CCOc2c1cc1c(c2-c2ccccc2)CCNCC1
5. CCN1CCOc2cc3c(c(C4CC4)c21)CCNCC3.O=C(O)/C=C/C(=O)O
6. Clc1c2c(cc3c1N(CC1CCC1)CCC3)CCNCC2
7. CCOC(=O)N1CCCc2cc3c(c(Br)c21)CCNCC3.O=C(O)C(=O)O

Reply:
221 to 222 °C
133 to 136 °C
166 to 170 °C
169 to 171 °C
174 to 177 °C
141 to 143 °C
187 to 189 °C

For every record below, what is its melting point?
1. Fc1ccc(Cl)cc1CN1CCOc2cc3c(c(C4CC4)c21)CCNCC3.O=C(O)/C=C/C(=O)O
2. COCCN1C(=O)CCc2cc3c(cc21)CCNCC3.O=C(O)/C=C/C(=O)O
3. CCCN1C(=O)CCc2cc3c(cc21)CCNCC3.Cl

Reply:
165 to 168 °C
164 to 166 °C
125 to 129 °C

For every record below, what is its melting point?
1. COC(C)(C)CN1CCOc2cc3c(c(C4CC4)c21)CCNCC3
2. CCCC1CN(C)c2cc3c(cc2O1)CCNCC3.O=C(O)/C=C/C(=O)O (stereo not drawn)
3. CO[C@@H](C)CN1CCOc2cc3c(c(C4CC4)c21)CCNCC3.O=C(O)/C=C/C(=O)O

Reply:
1: 155 to 156 °C; 2: 152 to 153 °C; 3: 135 to 138 °C

====

target: human 5-HT2C receptor (Homo sapiens, UniProt P28335); construct: expressed in transfected cells; experiment: Evaluation of 5-HT2C receptor agonist activity (intracellular calcium increase, FLIPR, CHO cells stably expressing the receptor); format: cell-based
Sequence (P28335 33-458): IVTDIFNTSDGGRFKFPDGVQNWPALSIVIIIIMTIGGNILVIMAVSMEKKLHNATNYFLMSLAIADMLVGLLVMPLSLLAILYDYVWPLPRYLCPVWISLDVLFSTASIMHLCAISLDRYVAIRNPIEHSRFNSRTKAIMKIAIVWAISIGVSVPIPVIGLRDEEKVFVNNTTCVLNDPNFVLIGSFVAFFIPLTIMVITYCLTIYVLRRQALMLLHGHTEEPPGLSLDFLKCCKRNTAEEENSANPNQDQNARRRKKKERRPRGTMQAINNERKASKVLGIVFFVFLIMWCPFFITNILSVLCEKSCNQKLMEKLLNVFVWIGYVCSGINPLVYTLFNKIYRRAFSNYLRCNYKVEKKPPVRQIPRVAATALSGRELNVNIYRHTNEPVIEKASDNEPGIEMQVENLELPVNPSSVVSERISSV
Task for the reader: assign each of the following compounds its reported EC50.
Give bare numbers, in nM.

• Clc1c2c(cc3c1N(CC1CCC1)CCC3)CCNCC2 = 1.9
• CN1CCOc2cc3c(c(Br)c21)CCNCC3.O=C(O)/C=C/C(=O)O = 0.42
• CCN1CCCc2cc3c(c(Cl)c21)CCNCC3.Cl = 1.5
• FCCCN1CCOc2cc3c(c(C4CC4)c21)CCNCC3.O=C(O)/C=C/C(=O)O = 0.36
• CC1CNc2cc3c(cc2O1)CCNCC3 (stereo not drawn) = 68

Lab note: next compound to report on.
Tested system human 5-HT2C receptor (Homo sapiens, UniProt P28335); EC50 recorded for Clc1c2c(cc3c1N(CC1CCCC1)CCC3)CCNCC2 was 3.9

====

RECORDED_ENDPOINT: melting point

* CCOCCN1CCOc2cc3c(c(C)c21)CCNCC3.O=C(O)/C=C/C(=O)O | 152 to 155 °C

For every record below, what is its melting point?
1. CCOCCN1CCOc2cc3c(c(CC)c21)CCNCC3.O=C(O)/C=C/C(=O)O
2. COCC(CN1CCOc2cc3c(c(C4CC4)c21)CCNCC3)Oc1ccccc1F.O=C(O)/C=C/C(=O)O (centres unmarked)

Reply:
1. 179 to 181 °C
2. 132 to 133 °C

For every record below, what is its melting point?
1. CCNC(=O)N1CCCc2cc3c(c(C)c21)CCNCC3.O=C(O)C(=O)O
2. c1c2c(c(C3CC3)c3c1OCCN3)CCNCC2

Reply:
170 to 171 °C
193 to 197 °C

====

Task for the reader: assign each of the following compounds its reported melting point.

As a guide, the following entries are already answered.
- CCOC(=O)N1CCCc2cc3c(c(C)c21)CCNCC3.O=C(O)C(=O)O: 185 to 186 °C
- COCC(C)(C)CN1CCOc2cc3c(c(C4CC4)c21)CCNCC3: 141 to 145 °C
- CN1CCC(C)(C)c2cc3c(cc21)CCNCC3.O=C(O)/C=C/C(=O)O: 197 to 200 °C
- O=C(O)/C=C/C(=O)O.O=C(OCCc1ccccc1)N1CCOc2c1cc1c(c2-c2cccs2)CCNCC1: 215 to 216 °C
- CN1CCOc2cc3c(c(Br)c21)CCNCC3.O=C(O)/C=C/C(=O)O: 200 to 204 °C
- O=C(O)CCC(=O)O.c1ccc(CN2CCOc3cc4c(c(C5CC5)c32)CCNCC4)cc1: 107 to 110 °C
- O=C(O)/C=C/C(=O)O.c1nc(CN2CCOc3cc4c(cc32)CCNCC4)cs1: 134 to 138 °C
- Fc1cccc(CN2CCOc3cc4c(c(C5CC5)c32)CCNCC4)c1.O=C(O)CCC(=O)O: 102 to 105 °C

Lab note: next compound to report on.
Note to self: melting point recorded for O=C(O)/C=C/C(=O)O.c1cc(CN2CCOc3cc4c(c(C5CC5)c32)CCNCC4)c2c(c1)OCCO2 was 184 to 187 °C

====

RECORDED_ENDPOINT: melting point

• Fc1cc(F)cc(CN2CCOc3cc4c(c(C5CC5)c32)CCNCC4)c1.O=C(O)/C=C/C(=O)O = 191 to 194 °C
• Clc1cccc(CN2CCOc3cc4c(c(C5CC5)c32)CCNCC4)c1.O=C(O)CCC(=O)O = 139 to 141 °C

For every record below, what is its melting point?
1. O=C1CCc2cc3c(c(Cl)c2N1)CCNCC3
2. Cl.FC(F)(F)CN1CCOc2c1cc1c(c2Br)CCNCC1
3. CC(Cc1ccccc1)OC(=O)N1CCOc2cc3c(cc21)CCNCC3.O=C(O)CCC(=O)O (stereo not shown)
4. c1c2c(c(C3CC3)c3c1OCCN3C[C@H]1CCCO1)CCNCC2
5. CCCN1C(=O)CCc2cc3c(c(C4CC4)c21)CCNCC3.O=C(O)CCC(=O)O
6. CC(COC(=O)N1CCOc2cc3c(cc21)CCNCC3)c1ccccc1.O=C(O)CCC(=O)O (stereo not shown)
7. COc1ccccc1CCOC(=O)N1CCOc2cc3c(cc21)CCNCC3.O=C(O)CCC(=O)O

Reply:
1: 165 to 167 °C; 2: 216 to 221 °C; 3: 85 to 87 °C; 4: 156 to 158 °C; 5: 170 to 171 °C; 6: 177 to 179 °C; 7: 158 to 160 °C

For every record below, what is its melting point?
1. O=C(O)CCC(=O)O.O=C(OCCc1ccccc1)N1CCOc2c1cc1c(c2Br)CCNCC1
2. CCOCCN1CCOc2cc3c(c(C4CC4)c21)CCNCC3.O=C(O)/C=C/C(=O)O
3. COc1cc(OCCN2CCOc3cc4c(c(C5CC5)c32)CCNCC4)c(F)cc1C#N.O=C(O)/C=C/C(=O)O
4. COCCN1CCOc2cc3c(c(C=C(C)C)c21)CCNCC3.O=C(O)/C=C/C(=O)O
5. Fc1c(Cl)cccc1CN1CCOc2cc3c(c(C4CC4)c21)CCNCC3.O=C(O)/C=C/C(=O)O
6. O=C(O)CCC(=O)O.O=C(OCCc1ccc(F)cc1)N1CCOc2cc3c(cc21)CCNCC3
7. CC1(C)CC(=O)Nc2cc3c(cc21)CCNCC3.Cl

Reply:
142 to 143 °C
140 to 145 °C
125 to 128 °C
173 to 176 °C
181 to 184 °C
179 to 181 °C
270 to 272 °C

For every record below, what is its melting point?
1. Clc1cccc(-c2c3c(cc4c2NCCC4)CCNCC3)c1.O=C(O)/C=C/C(=O)O
2. COCCN1c2cc3c(cc2OC[C@@H]1C)CCNCC3.O=C(O)/C=C/C(=O)O
3. CC(C)CN1CCOc2cc3c(c(C4CC4)c21)CCNCC3

Reply:
159 to 162 °C
131 to 134 °C
160 to 162 °C
